target-or-system: T1, SARS-CoV-2-B.1.617.2 (Delta variant) RBD (SARS-CoV-2 B.1.617.2 (Delta variant), UniProt P0DTC2 319-541)
T1 construct: domain: RBD; also called Delta RBD; Delta antigen
experiment-description: ELISA on RBD antigen, human IgG at 1 µg/mL, O.D. 450 nm
observable: binding result

INSERT INTO results (binder, observable, measurement) VALUES
  ('SKAI-DS66 (antibody, V domains shown, also called SKAI-DS66 human IgG antibody) VH: EVQLLESGGGLVQPGGSLRLSCAASGFTFSDYAMSWVRQAPGKGLEWVSAIYPGGGSTYYADSVKGRFTISRDNSKNTLYLQMNSLRAEDTAVYYCARNLFGFDYWGQGTLVTV VL: QSVLTQPPSASGTPGQRVTISCTGSSSNIGSNAVYWYQQLPGTAPKLLIYDDSNRPSGVPDRFSGSKSGTSASLAISGLRSEDEADYYCGSWDDSLSAYVFGGGTKLTVL', 'binding result', 'binds'),
  ('SKAI-DS1 (antibody, V domains shown, also called SKAI-DS1 human IgG antibody) VH: EVQLLESGGGLVQTGGSLRLSCAASGFTFSDYAMSWVRQAPGKGLEWVSWIYSNDGNKYYADSVKGRFTISRDNSKNTLYLQMNSLRAEDTAVYYCARFPVPSWRNTWSSYDAMDVWGQGTLVTV VL: QSVLTQPPSASGTPGRRVTISCTGSSSNIGSNYVSWYQQLPGTAPKLLIYSDSNRPSGVPDRFSGSKSGTSASLAISGLRSEDEADYYCGTWDASLSGYVFGGGTKLTVL', 'binding result', 'binds'),
  ('SKAI-DS64 (antibody, V domains shown, also called SKAI-DS64 human IgG antibody) VH: EVQLLESGGGLVQPGGSLRLSCAASGFTFSDYSMSWVRQAPGKGLEWVSGIYHSDGSKYYADSVKGRFTISRDNSKNTLYLQMNSLRAEDTAVYYCARFDPVFDYWGQGTLVTV VL: QSVLTQPPSASGTPGQRVTISCSGSSSNIGSNAVSWYQQLPGTAPKLLIYDNNHRPSGVPDRFSGSKSGTSASLAISGLRSEDEADYYCGSWDDSLNAYVFGGGTKLTVL', 'binding result', 'binds');
